Target: T1, 017-mut9 peptide (…)/HLA-A*02:01 complex on T2 cells (human)
T1 construct: Alanine mutant at position 9
Experiment: flow cytometry, phage on peptide-loaded T2 cells
readout: MFI

binder	data-value
EXT017-27 scFv phage clone (scFv, full-length scFv with His+HA tags; also called EXT017-27 phage; phage clone #27) scFv: QAVLTQPPSVSVAPGKTARLTCGGNNIGSESVHWYQQKPGQAPLLVVYDDDDRPSGIPERFSGSNSGNTATLTISRVEAGDEADYYCQVWDRSSDHWFFGGGTKLTVLGSRGGGGSGGGGSGGGGSLEMAQVQLVQSGAEVKKPGASVKVSCKASGYTFTNYYIHWVRQAPGQGLEWMGIIRPSGGITNYAQKFQGRVSMTRDTSTSTVYMELSSLRSEDTAVYYCARSWDYFASNDFWGQGTLVTVSSTSGQAGQHHHHHHGAYPYDVPDYAS	131
